Value source: ChEMBL document CHEMBL1629525

# system_under_test: UniProtKB P31421
# Sequence (P31421 whole entry): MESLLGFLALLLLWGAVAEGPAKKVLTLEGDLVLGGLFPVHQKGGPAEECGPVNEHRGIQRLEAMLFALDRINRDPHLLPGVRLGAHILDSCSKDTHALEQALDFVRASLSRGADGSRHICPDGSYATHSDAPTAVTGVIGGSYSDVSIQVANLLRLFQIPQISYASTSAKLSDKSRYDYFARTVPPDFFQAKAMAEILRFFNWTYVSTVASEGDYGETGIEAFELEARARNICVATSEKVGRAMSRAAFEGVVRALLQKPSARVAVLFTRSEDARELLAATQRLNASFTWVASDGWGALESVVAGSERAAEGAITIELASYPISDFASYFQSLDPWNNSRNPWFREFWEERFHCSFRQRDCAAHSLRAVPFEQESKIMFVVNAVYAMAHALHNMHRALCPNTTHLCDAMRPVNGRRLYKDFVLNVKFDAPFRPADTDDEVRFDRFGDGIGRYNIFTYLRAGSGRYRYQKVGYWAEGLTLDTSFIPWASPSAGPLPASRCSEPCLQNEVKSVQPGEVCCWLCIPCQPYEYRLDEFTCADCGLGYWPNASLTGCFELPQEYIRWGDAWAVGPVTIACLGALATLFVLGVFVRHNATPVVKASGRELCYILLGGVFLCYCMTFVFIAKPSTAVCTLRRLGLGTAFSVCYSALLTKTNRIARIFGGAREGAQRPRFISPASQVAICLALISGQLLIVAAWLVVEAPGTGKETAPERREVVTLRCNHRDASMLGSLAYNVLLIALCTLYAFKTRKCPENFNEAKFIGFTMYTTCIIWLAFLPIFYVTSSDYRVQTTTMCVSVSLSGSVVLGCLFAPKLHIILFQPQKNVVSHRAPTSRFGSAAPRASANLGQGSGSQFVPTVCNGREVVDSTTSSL
# assay_details: Partial displacement of [3H]LY354740 from recombinant rat mGluR2
value_kind: pIC50
FYI, pIC50 means -log10 of a concentration in mol per litre.

Worked cases, answers included:
# chemical_smiles, pIC50
measured = [
    ("Cc1cc2c(cc1C(F)(F)F)NC(=O)CC(c1cccc(-c3cnccn3)c1)=N2", 7.70),
    ("Cc1cc2c(cc1C(F)(F)F)NC(=O)CC(c1cccc(-c3ccc(C(C)C)nc3)c1)=N2", 8.00),
    ("Cc1cc(-c2cccc(C3=Nc4cc(C)c(C(F)(F)F)cc4NC(=O)C3)c2)cc(C)n1", 8.70),
]

**Query** I'd like to know its pIC50. The compound in question is Cc1cc2c(cc1C(F)(F)F)NC(=O)CC(c1cccc(-c3ccccn3)c1)=N2
**Result** 7.59

**Query** Also, Cc1cc2c(cc1C(F)(F)F)NC(=O)CC(c1cccc(-c3ccnc(-c4ccccc4)c3)c1)=N2 please.
**Result** 6.93

**Query** Also, CCOc1cc2c(cc1C(F)(F)F)NC(=O)CC(c1cccc(-c3ccnc(C)c3)c1)=N2 please.
**Result** 8.22

**Query** Also, Cc1cc(-c2cccc(C3=Nc4cc(Cl)c(Cl)cc4NC(=O)C3)c2)ccn1 please.
**Result** 8.40

**Query** Also, Cc1cc2c(cc1C(F)(F)F)NC(=O)CC(c1cccc(-c3ccnc(C4CCCC4)c3)c1)=N2 please.
**Result** 8.00

**Query** Also, Cc1cc2c(cc1C(F)(F)F)NC(=O)CC(c1cccc(-c3ccc(C4CC4)nc3)c1)=N2 please.
**Result** 8.22
